- Experimental target: Human CB2R (Cannabinoid receptor 2) (Homo sapiens, UniProt P34972)
- Sequence (P34972 whole entry): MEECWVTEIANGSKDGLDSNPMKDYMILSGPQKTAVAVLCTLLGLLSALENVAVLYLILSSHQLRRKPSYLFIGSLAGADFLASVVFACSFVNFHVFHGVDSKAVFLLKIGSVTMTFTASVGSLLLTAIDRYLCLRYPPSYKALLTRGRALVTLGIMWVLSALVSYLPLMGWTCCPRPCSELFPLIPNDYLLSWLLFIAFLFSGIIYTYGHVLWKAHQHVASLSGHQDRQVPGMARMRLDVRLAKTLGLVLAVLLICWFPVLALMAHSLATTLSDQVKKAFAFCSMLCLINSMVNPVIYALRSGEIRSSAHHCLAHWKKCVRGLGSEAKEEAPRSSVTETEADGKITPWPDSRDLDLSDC
- Method notes: CB-2 in vitro cAMP (HTRF) assay
- Assay context: HEK cells, cAMP HTRF, 250 nM forskolin; mean where tested more than once; read-out: CB2 HEK_cAMP EC50
pEC50: −log10 of the molar value.
Measured metric: pEC50

1. CCOC(=O)N1CCC(n2c(C)nc3ccc(C(c4ccc(Cl)cc4)c4nccs4)cc32)CC1 (stereo not shown); < 5.00
2. CCOC(=O)COc1ccc(-n2c(C3CC3)nc3ccc(C(c4ccc(Cl)cc4)c4ccc(Cl)cc4)cc32)cc1; 6.50
3. CCOC(=O)N1CCC(n2c(-c3ccc(Cl)cc3)nc3ccc(C(c4ccc(Cl)cc4)c4nccs4)cc32)CC1 (stereo not shown) [Example 441]; < 5.00
4. CCOC(=O)N1CCC(n2c(CC(C)C)nc3ccc(C(c4ccc(Cl)cc4)c4nccs4)cc32)CC1 (stereo not shown); < 5.00
